# EXPERIMENTAL_PROTOCOL: MMV: MTT Cytotoxicity Assay Day 7 pi of Assay #6 (compound washed out Day 1 pi), U87-CD4-CCR5 cells, % cell death @ 5mM compound
# Type: toxicity, cell-based
# RECORDED_CONDITIONS: human, u87-cd4-ccr5, 5000 µM
Each record here notes measured % Cell Death.

- COMPOUND: "CCCc1cc(O)c2c3c(c(=O)oc2c1)CN(C)CC3"
  % Cell Death: -8
- COMPOUND: "Cc1cccc(Nc2nc(N)c3ccccc3n2)c1.Cl"
  % Cell Death: 28
- COMPOUND: "CN(C)CCCNCc1ccc(-c2ccc(F)c(Cl)c2)o1.Cl"
  % Cell Death: 16
- COMPOUND: "CCOc1cc2c(cc1OCC)C(c1cc(Cl)c(O)c(OCC)c1)NCC2 (stereo not drawn)"
  % Cell Death: 8
- COMPOUND: "COC(=O)c1ccc(Cl)c2c1C1C=CCC1C(c1cccc3ccccc13)N2 (stereo not drawn)"
  % Cell Death: -5
- COMPOUND: "Cc1cc(Nc2ccc(Cl)cc2)n2nc(C(F)(F)F)nc2n1"
  % Cell Death: 46
- COMPOUND: "O=C(Nc1ccc(N2CCCCC2)c(Cl)c1)c1ccc(Br)o1"
  % Cell Death: 26
- COMPOUND: "O=C(O)C(=O)O.Oc1ccccc1CN1CCN(C(c2ccccc2)c2ccccc2)CC1"
  % Cell Death: 2

###

# EXPERIMENTAL_PROTOCOL: MMV: MTT Cytotoxicity Assay Day 7 pi of Assay #6 (compound washed out Day 1 pi), U87-CD4-CCR5 cells, % cell death @ 5mM compound
# Type: toxicity, cell-based
# RECORDED_CONDITIONS: human, u87-cd4-ccr5, 5000 µM

- COMPOUND: "CCCn1c(=N)c(C(=O)NC2CCCCC2)cc2c(=O)n3cccc(C)c3nc21"
  % Cell Death: 0
- COMPOUND: "CCOC(=O)c1cn(CC)c2cc(N3CCCCC3)c(F)cc2c1=O"
  % Cell Death: 99
- COMPOUND: "Cc1ccc(CN2CCC(C(=O)Nc3ccc(-c4cc5ccccc5[nH]4)cc3)CC2)o1"
  % Cell Death: 31
- COMPOUND: "C=CCc1c(C)nc2ccccc2c1O"
  % Cell Death: -8
- COMPOUND: "COc1ccccc1N1CCN(C(CNS(=O)(=O)c2ccc(Cl)cc2)c2cccnc2)CC1 (stereo unspecified)"
  % Cell Death: 83
- COMPOUND: "Cc1ccc(C(=O)c2oc3ccc4c(C)cc(=O)oc4c3c2C)cc1"
  % Cell Death: 7
- COMPOUND: "COc1ccc(C(=O)C2CC2c2ccc(Cl)cc2)cc1 (stereo unspecified)"
  % Cell Death: 6
- COMPOUND: "CCOc1cc(Cl)c(C(C)NC(=O)c2ccccc2)cc1OCC (stereo unspecified)"
  % Cell Death: -4
- COMPOUND: "CCN(CC)c1ccc(NC(=O)c2cccs2)cc1"
  % Cell Death: 18
- COMPOUND: "CN(C)CCNc1cc(-c2ccccc2)nc2ccccc12"
  % Cell Death: 6
- COMPOUND: "CCOC(=O)c1cnc2c(C)cccc2c1Nc1ccc(C(C)=O)cc1"
  % Cell Death: 49

###

# EXPERIMENTAL_PROTOCOL: MMV: MTT Cytotoxicity Assay Day 7 pi of Assay #11 (NO washout), U87-CD4-CXCR4 cells, % cell death @ 5mM compound
# Format: toxicity, cell-based
# RECORDED_CONDITIONS: human, u87-cd4-cxcr4, 5000 µM
Parameter % Cell Death: see the listing below.
PROPERTY_NAME: % Cell Death

- COMPOUND: "COc1ccc2c(=O)cc(C(Cl)(Cl)Cl)oc2c1"
  PROPERTY_NAME: "% Cell Death"
  QUANTITATIVE_RESULT: 95
- COMPOUND: "COc1cccc(C(=O)Nc2ccc(-c3nc4ccccc4[nH]3)cc2)c1"
  PROPERTY_NAME: "% Cell Death"
  QUANTITATIVE_RESULT: 35
- COMPOUND: "Cn1c(C(=O)c2cccc3ccccc23)nc2ccccc21"
  PROPERTY_NAME: "% Cell Death"
  QUANTITATIVE_RESULT: -77
- COMPOUND: "COc1ccc(C=C2SC(=N)N(c3ccccc3OC)C2=O)cc1"
  PROPERTY_NAME: "% Cell Death"
  QUANTITATIVE_RESULT: 93
- COMPOUND: "Cc1ccc(Nc2nc(NCCO)c3ccccc3n2)cc1C"
  PROPERTY_NAME: "% Cell Death"
  QUANTITATIVE_RESULT: 12
- COMPOUND: "CN1CCN(c2c3c(c(C#N)c4nc5ccccc5n24)CCC3)CC1"
  PROPERTY_NAME: "% Cell Death"
  QUANTITATIVE_RESULT: 16
- COMPOUND: "O=C(Nc1ccc(-c2nc3cc4ccccc4cc3[nH]2)cc1)c1cccc(Br)c1"
  PROPERTY_NAME: "% Cell Death"
  QUANTITATIVE_RESULT: -33
- COMPOUND: "CCCN(CCC)CC(O)COc1ccccc1C(=O)Nc1ccccc1 (stereo not drawn)"
  PROPERTY_NAME: "% Cell Death"
  QUANTITATIVE_RESULT: -27
- COMPOUND: "Cc1ccc(F)cc1NC(=O)c1cc(Cl)ccc1Nc1ccccc1"
  PROPERTY_NAME: "% Cell Death"
  QUANTITATIVE_RESULT: -27
- COMPOUND: "Nc1ccc(-c2nc3cc(Cc4ccc5[nH]c(-c6ccc(N)cc6)nc5c4)ccc3[nH]2)cc1"
  PROPERTY_NAME: "% Cell Death"
  QUANTITATIVE_RESULT: 110
- COMPOUND: "O=C1c2ccc3c4c(ccc(c24)C(=O)N1CCCCO)C(=O)N(CCCCO)C3=O"
  PROPERTY_NAME: "% Cell Death"
  QUANTITATIVE_RESULT: -30
- COMPOUND: "Cc1cccc(Nc2nc(N)c3ccccc3n2)c1.Cl"
  PROPERTY_NAME: "% Cell Death"
  QUANTITATIVE_RESULT: 71
- COMPOUND: "Cc1cc(NC(=O)C2c3ccccc3C(=O)N(CC(C)C)C2c2cccs2)no1 (stereo not drawn)"
  PROPERTY_NAME: "% Cell Death"
  QUANTITATIVE_RESULT: -16
- COMPOUND: "CCOc1ccc(-c2nonc2NC(=O)c2cccc(C)c2)cc1OCC"
  PROPERTY_NAME: "% Cell Death"
  QUANTITATIVE_RESULT: -48
- COMPOUND: "CCCc1c(C)nc2ccccc2c1O"
  PROPERTY_NAME: "% Cell Death"
  QUANTITATIVE_RESULT: 51
- COMPOUND: "COc1cc(C(=O)Nc2ccc(-c3nc4ccccc4[nH]3)cc2)cc(OC)c1OC"
  PROPERTY_NAME: "% Cell Death"
  QUANTITATIVE_RESULT: -49
- COMPOUND: "FC(F)(F)c1cccc(CNC2CCN(CCc3ccccc3)CC2)c1"
  PROPERTY_NAME: "% Cell Death"
  QUANTITATIVE_RESULT: 24
- COMPOUND: "Cc1ccc(OCCCCCCNCCO)c(C)c1"
  PROPERTY_NAME: "% Cell Death"
  QUANTITATIVE_RESULT: -10
- COMPOUND: "Cl.OC(CNCc1ccccc1)Cn1c2ccccc2c2ccccc21 (stereo not drawn)"
  PROPERTY_NAME: "% Cell Death"
  QUANTITATIVE_RESULT: -23
- COMPOUND: "Cc1cc(N2CCCC2)nc(Nc2ccc(NC(=O)CCc3ccccc3)cc2)n1"
  PROPERTY_NAME: "% Cell Death"
  QUANTITATIVE_RESULT: -21
- COMPOUND: "CCOC(=O)c1cnc2c(C)cccc2c1Nc1ccc(C(C)=O)cc1"
  PROPERTY_NAME: "% Cell Death"
  QUANTITATIVE_RESULT: 80
- COMPOUND: "COc1ccc(Nc2nc(NCc3ccccc3)c3ccccc3n2)cc1"
  PROPERTY_NAME: "% Cell Death"
  QUANTITATIVE_RESULT: -24
- COMPOUND: "O=C(CSc1ccc2nnc(-c3cccc(F)c3)n2n1)Nc1ccc2c(c1)OCO2"
  PROPERTY_NAME: "% Cell Death"
  QUANTITATIVE_RESULT: 100
